tested on: MCF-7 cells; experiment: Proliferation assay (crystal violet); format: cell-based; conditions: MCF7, 96 h, MCF-7 human tumor cells, 4 days incubation
# Lookup of reported IC50 keyed by entry
Please state the figure in nM; there is no need to write the unit.

CC(C)(C)[Si](C)(C)Oc1cccc(-c2ccc3c(c2)C(=C2Nc4ccccc4C2=O)C(=O)N3)c1	4000

Next molecule, please.
Recorded result, O=C1Nc2ccc(-c3ccc(Cl)cc3)cc2C1=C1Nc2ccccc2C1=O , IC50: 500

---

target: CDK2/CycE (Homo sapiens, UniProt P24941); construct: GST; test: CDK2/CycE kinase assay; settings: recombinant CDK2/CycE-GST, histone IIIS substrate, 0.5 μm ATP, 15 minutes at 22° C.
Threshold check on IC50: strictly below 0.3 µM is Condition met; on or above 0.3 µM is Condition not met.

Use the examples below as a reference point.
O=C1Nc2ccc(-c3ccc(Cl)cc3)cc2C1=C1Nc2ccccc2C1=O	Condition met
CC(C)(C)[Si](C)(C)Oc1cccc(-c2ccc3c(c2)C(=C2Nc4ccccc4C2=O)C(=O)N3)c1	Condition met
COc1ccc(-c2ccc3c(c2)/C(=C2/Nc4ccccc4C2=O)C(=O)N3)cc1	Condition not met
O=C1Nc2ccc(-c3cc(C(F)(F)F)cc(C(F)(F)F)c3)cc2C1=C1Nc2ccccc2C1=O	Condition not met

Take the compound O=C1Nc2ccc(-c3ccccc3)cc2C1=C1Nc2ccccc2C1=O and say whether its IC50 is less than 0.3 µM.
Condition not met
